Numbers sourced from PubChem BioAssay (NCI).

Assay: NCI Yeast Anticancer Drug Screen. Data for the mlh1 rad18 strain (AID 175)
Details: S. cerevisiae mlh1 rad18 strain growth inhibition; at 50.0 µM; active compounds read high
Compounds without any hit were thinned out: in the full panel of roughly 79,000, 15% have a hit. The source made the active and inactive calls. No stated cut-off is given here; in the data, active means growth inhibition above about 70%; inactive means the rest.
growth inhibition listing for selected molecules.

{"MOLECULE": "Cc1ccc(/S(Cc2ccccc2)=N\\S(=O)(=O)c2ccc(C)cc2)cc1 (configuration not stated)", "growth inhibition": "-33.1% (inactive)"}
{"MOLECULE": "Nc1nnc2nc(CC(=O)c3cccc([N+](=O)[O-])c3)c(CC(=O)c3cccc([N+](=O)[O-])c3)nn12", "growth inhibition": "14.8% (inactive)"}
{"MOLECULE": "N#CC(c1ccccc1)N(CCc1ccccc1)C(=O)c1ccccc1 (configuration not stated)", "growth inhibition": "-48.2% (inactive)"}
{"MOLECULE": "CC(C)N(CCC#N)C(=S)Nc1cccc2ccccc12", "growth inhibition": "-8.2% (inactive)"}
{"MOLECULE": "CC1(c2cccc[n+]2Cc2ccccc2S(=O)(=O)[O-])OCCO1", "growth inhibition": "-21.6% (inactive)"}
{"MOLECULE": "CN(C)C1=NS(=O)(=O)N=C(N(C)c2ccccc2)O1", "growth inhibition": "10.5% (inactive)"}
{"MOLECULE": "CC(=O)CCc1ccc(OC(=O)C(Cl)Cl)cc1", "growth inhibition": "29.6% (inactive)"}
{"MOLECULE": "Cc1ccc(S(=O)(=O)NC(C)C(=O)O)cc1 (configuration not stated)", "growth inhibition": "4.6% (inactive)"}
{"MOLECULE": "C=C1C(=O)OC2C=C(C)CC3C=C(CCC=C(C)CCC12)C(=O)O3 (configuration not stated)", "growth inhibition": "-17.7% (inactive)"}
{"MOLECULE": "C=CCNC(=O)CC(C)(C)C", "growth inhibition": "20.2% (inactive)"}
{"MOLECULE": "CCCCS/C=C\\C(=O)OCC", "growth inhibition": "-15.4% (inactive)"}
{"MOLECULE": "Cl/C(=C\\c1ccccc1)c1ccccc1", "growth inhibition": "-6.55% (inactive)"}
{"MOLECULE": "O=C(OCOC(=O)N1CCOCC1)N1CCOCC1", "growth inhibition": "-5.2% (inactive)"}
{"MOLECULE": "CC(=O)OCC1OC(n2ccc(NC(=O)Nc3ccn(C4OC(COC(C)=O)C(OC(C)=O)C4OC(C)=O)c(=O)n3)nc2=O)C(OC(C)=O)C1OC(C)=O (configuration not stated)", "growth inhibition": "10.9% (inactive)"}
{"MOLECULE": "O=C(CCCC(=O)N/N=C/c1cccc([N+](=O)[O-])c1)N/N=C\\c1cccc([N+](=O)[O-])c1", "growth inhibition": "26.1% (inactive)"}
{"MOLECULE": "CC(C)=CCC1=C(OC2OC(CO)C(O)C(O)C2O)C(=O)c2ccccc2C1=O (configuration not stated)", "growth inhibition": "5.5% (inactive)"}
{"MOLECULE": "CCO/C=C1\\SC(=S)N(CCc2ccc(OC)c(OC)c2)C1=O", "growth inhibition": "-10.5% (inactive)"}
{"MOLECULE": "Cc1cccc(C)c1NC(=O)/C(Cc1nc2ccc([N+](=O)[O-])cc2[nH]c1=O)=N\\NC(N)=O", "growth inhibition": "41.4% (inactive)"}
{"MOLECULE": "C1=Nc2ccccc2/C1=C/c1c[nH]c2ccccc12", "growth inhibition": "17.9% (inactive)"}
{"MOLECULE": "Cc1nc(NS(=O)(=O)c2ccc(N)cc2)nc(C)c1Br", "growth inhibition": "-15.1% (inactive)"}
{"MOLECULE": "NC1(C(=O)O)CCCCC1", "growth inhibition": "-18.4% (inactive)"}
{"MOLECULE": "CCNC(=S)Nc1ccc(Cl)cc1", "growth inhibition": "35.8% (inactive)"}
{"MOLECULE": "Cc1ccc(S(=O)(=O)N2CCOCC2)cc1", "growth inhibition": "-30.4% (inactive)"}
{"MOLECULE": "COC(=O)c1ccccc1NC(=O)N(c1ccccc1)c1ccccc1", "growth inhibition": "-1.55% (inactive)"}
{"MOLECULE": "CCOC(=O)C(C)=P(c1ccccc1)(c1ccccc1)c1ccccc1", "growth inhibition": "-11.3% (inactive)"}
{"MOLECULE": "O=C(c1ccccc1Cl)N1CCN(c2ccccc2)CC1", "growth inhibition": "-6.85% (inactive)"}
{"MOLECULE": "C/C(Nc1ccc(Cl)cc1)=C1/CCOC1=O", "growth inhibition": "-24.9% (inactive)"}
{"MOLECULE": "O=C(O)c1cc(=O)c2ccccc2[nH]1", "growth inhibition": "17.9% (inactive)"}
{"MOLECULE": "CCc1nc(N)nc(N)c1-c1ccc(Cl)c([N+](=O)[O-])c1", "growth inhibition": "-13.6% (inactive)"}
{"MOLECULE": "NC1=Nc2cc(C(F)(F)F)ccc2Sc2nc3ccccc3n21", "growth inhibition": "5.65% (inactive)"}
{"MOLECULE": "NC(=O)c1ccc2c(ccc3ccccc32)c1", "growth inhibition": "-2.75% (inactive)"}
{"MOLECULE": "O=C(O)c1cc(=O)[nH]c(SCc2ccc(Cl)cc2Cl)n1", "growth inhibition": "-1.35% (inactive)"}
{"MOLECULE": "S=C(N1CCN(c2cccc(Cl)c2)CC1)N1CCN(c2cccc(Cl)c2)CC1", "growth inhibition": "12.7% (inactive)"}
{"MOLECULE": "COC(=O)C(=O)C1CCc2c(ccc3c2CCCC3)C1 (configuration not stated)", "growth inhibition": "10.2% (inactive)"}
{"MOLECULE": "Oc1c(/N=N/C(=S)NCCCN2CCN(CCCNC(=S)/N=N/c3[nH]c4ccccc4c3O)CC2)[nH]c2ccccc12", "growth inhibition": "14.9% (inactive)"}
{"MOLECULE": "NC(=O)C(=O)C1CCC2=C(Sc3ccccc3N2)C1=O (configuration not stated)", "growth inhibition": "4.5% (inactive)"}
{"MOLECULE": "CCC(SC(C)=O)C(=O)O (configuration not stated)", "growth inhibition": "9.5% (inactive)"}
{"MOLECULE": "O=C1c2cc([N+](=O)[O-])ccc2-c2c(I)cccc21", "growth inhibition": "-6.45% (inactive)"}
{"MOLECULE": "COc1ccc(Cc2ccc(OC)cc2)cc1", "growth inhibition": "-15% (inactive)"}
{"MOLECULE": "[O-]c1c[n+](-c2cc(Cl)ccc2Cl)no1", "growth inhibition": "2.55% (inactive)"}
{"MOLECULE": "CCN(CC)CCOC(=O)OCCN(CC)CC", "growth inhibition": "-38.8% (inactive)"}
{"MOLECULE": "CN(C)CCCNc1cc[n+](C)c2cccc([N+](=O)[O-])c12", "growth inhibition": "27.3% (inactive)"}
{"MOLECULE": "CN(Cc1nc2c(N)nc(N)nc2nc1N)c1ccc(C(=O)NC(CCC(=O)O)C(=O)O)cc1 (configuration not stated)", "growth inhibition": "-26.1% (inactive)"}
{"MOLECULE": "O=C1NC(=O)C(c2ccccc2)(c2ccsc2)N1 (configuration not stated)", "growth inhibition": "13.6% (inactive)"}
{"MOLECULE": "COc1ccc(C(=O)NC(=S)Nc2cccc([N+](=O)[O-])c2)cc1", "growth inhibition": "27.7% (inactive)"}
{"MOLECULE": "N#Cc1cccc(NC(=O)c2ccc(C(=O)O)c(C(=O)c3ccc(C(=O)O)c(C(=O)Nc4cccc(C#N)c4)c3)c2)c1", "growth inhibition": "-20.8% (inactive)"}
{"MOLECULE": "O=C(N/N=C/c1ccc(O)cc1)C1CCCO1 (configuration not stated)", "growth inhibition": "-9.45% (inactive)"}

====

Experiment: NCI Yeast Anticancer Drug Screen. Data for the bub3 strain (AID 167)
Conditions: S. cerevisiae bub3 mutant strain, at 50.0 µM, active compounds read high
Description: Growth inhibition of yeast strains with defined genetic alterations is measured as a screen for potential anti-cancer activity. Selected strains with alterations in DNA damage repair or cell cycle control were exposed to compounds and growth inhibition was measured relative to vehicle treated controls. The strain used in this assay is bub3
The panel holds about 79,000 compounds, 15% with a hit somewhere; the sample as a whole holds those more often.
Quick rule: growth inhibition of at least 10% means yes (1), below that means no (0).

{"MOLECULE": "CCC(C)CCC(=O)C(C)C(=O)O (stereo not given)", "QUALITATIVE LABEL": "no (0)"}
{"MOLECULE": "CC(C)(O)CCc1ccccc1", "QUALITATIVE LABEL": "no (0)"}
{"MOLECULE": "CCCC(=O)NC(Nc1cc(C)ccn1)(C(=O)OCC)C(F)(F)F (stereo not given)", "QUALITATIVE LABEL": "yes (1)"}
{"MOLECULE": "COC(=O)C(=O)C(C)C(=O)C(C)c1nc(NC(=O)Nc2ccc(Cl)cc2)n[nH]1 (stereo not given)", "QUALITATIVE LABEL": "yes (1)"}
{"MOLECULE": "O=C(O)C(=O)NCc1cnccn1", "QUALITATIVE LABEL": "yes (1)"}
{"MOLECULE": "Nc1ccc(-c2ccc(N=C(/C=N/O)NO)cc2)cc1", "QUALITATIVE LABEL": "yes (1)"}
{"MOLECULE": "NC(=S)Nc1c(Cl)cc(Cl)cc1Cl", "QUALITATIVE LABEL": "yes (1)"}
{"MOLECULE": "O=c1c2cc3ccccc3cc2c(=O)n2n1CC(O)C(Br)C2 (stereo not given)", "QUALITATIVE LABEL": "no (0)"}
{"MOLECULE": "Cc1nn(C(=O)c2c(-c3ccccc3)noc2C)c(C)c1N=Nc1cc(C(F)(F)F)cc(C(F)(F)F)c1", "QUALITATIVE LABEL": "no (0)"}
{"MOLECULE": "O=[n+]1ccn([O-])c2cc(Cl)ccc21", "QUALITATIVE LABEL": "no (0)"}
{"MOLECULE": "CCCCN(CCCC)CC(O)c1cc(-c2ccc(Cl)cc2)nc2cc(OC)c(OC)cc12 (stereo not given)", "QUALITATIVE LABEL": "yes (1)"}
{"MOLECULE": "OCC(O)C(O)C(O)c1nn(-c2ccc(Cl)cc2)c2nc3cc(Cl)c(Cl)cc3nc12 (stereo not given)", "QUALITATIVE LABEL": "no (0)"}
{"MOLECULE": "CCN(CC)c1ccc2cc(-c3nc4ccccc4[nH]3)c(=O)oc2c1", "QUALITATIVE LABEL": "yes (1)"}
{"MOLECULE": "COC(=O)C(=O)c1c(C2CC2)[nH]c2[nH]n(-c3ccccc3)c(=O)c2c1=O", "QUALITATIVE LABEL": "no (0)"}
{"MOLECULE": "Cc1ccc(S(=O)(=O)NC(C)C(=O)O)cc1 (stereo not given)", "QUALITATIVE LABEL": "no (0)"}
{"MOLECULE": "CCC(c1ccc(OC)cc1)C1NC(=S)NC1=O (stereo not given)", "QUALITATIVE LABEL": "no (0)"}
{"MOLECULE": "CCOc1cc[n+]([O-])cc1C", "QUALITATIVE LABEL": "no (0)"}
{"MOLECULE": "O=[N+]([O-])c1ccc(Cl)c(OCCBr)c1", "QUALITATIVE LABEL": "yes (1)"}
{"MOLECULE": "O=C(Cl)c1cc(I)c(I)c(I)c1", "QUALITATIVE LABEL": "yes (1)"}
{"MOLECULE": "Cc1c(Cl)cccc1NC(=O)OCCCc1ccccc1", "QUALITATIVE LABEL": "no (0)"}
{"MOLECULE": "O=C(O)C(Cc1c[nH]c2ccccc12)Nc1ccc([N+](=O)[O-])cc1[N+](=O)[O-] (stereo not given)", "QUALITATIVE LABEL": "no (0)"}
{"MOLECULE": "CCC/C(=C(\\C)c1ccccc1)c1ccccc1", "QUALITATIVE LABEL": "no (0)"}
{"MOLECULE": "COc1ccc(C(C)=C(C#N)C#N)cc1", "QUALITATIVE LABEL": "yes (1)"}
{"MOLECULE": "O=C(CN1C(=O)c2ccccc2C1=O)NCC(=O)N(C(=O)NC1CCCCC1)C1CCCCC1", "QUALITATIVE LABEL": "no (0)"}
{"MOLECULE": "O=C1COc2cc(O)cc(O)c21", "QUALITATIVE LABEL": "yes (1)"}
